- subject_of_test: T1, human IgE (human, UniProt P01854 1-428)
- T1 construct: written under the same molecule; also called IgE (Abcam ab65866); soluble IgE
- assay_comment: ELISA, clone lysate on IgE-coated plate
assay_endpoint: Confirm OD450 Duplicate1

binder	test_value
9F1 (VHH, also called hzB10v40 VHH, CDR1 site 9 M to S) VHH: EVQLLESGGGEVQPGGSLRLSCVASGLTFSSYNSGWLRQAPGKEREFVGLSGSSSTSTYYAESVKGRFTISRDNAKNTVYLQMTSLRAEDTAVYYCAARRLLSTYWSDRSWDFWGQGTLVTVEP	0.498
33-2C4 (VHH) VHH: EVQLLESGGGEVQPGGSLRLSCVASGLTFSSYNMGWLRQAPGKEREFVGLSGSSSTSTYYAESVKGRFTISRDNAKNTVYLQMTSLRAEDTAVYYCAARRLFSTYWSDRSWDFWGQGTLVTVEP	0.514
